Test system: UACC-62 melanoma
Assay: NCI-60 one-dose screen, 48 h (100 = growth as untreated, 0 = no growth, -100 = all killed)
Conditions: 10 µM unless noted
About 83,000 compounds went through this panel and 20% of them were active in at least one assay; those are over-represented in the sample as a whole. Activity calls are given as the source filed them. Rule for the calls: active = growth percent below 10; inactive = the rest.
Below is a list of entries, each paired with its recorded growth value.

O=c1nc(NO)[nH]c(=O)n1Cc1ccc(F)cc1	108% (inactive)
c1ccc2cc(Cn3c(-c4ccc5ccccc5c4)[n+](Cc4ccc5ccccc5c4)c4ccccc43)ccc2c1	-87.8% (active)
CCCCOC(=O)C1OC(Oc2ccc3c(C)cc(=O)oc3c2)[C@@H](OC(C)=O)C(OC(C)=O)C1OC(C)=O (some centres not stated)	97% (inactive)

Prompt line: Looking for the measured growth of O=C1C(Cl)=C(NCCCN2CCOCC2)C(=O)c2ccccc21 , can you help?
Response line: 94.8% (inactive)

Prompt line: Looking for the measured growth of COc1ccc(-n2ncc3c2ccc2cc(S(=O)(=O)c4ccccc4)c(=O)n(C)c23)cc1 , can you help?
Response line: 87.8% (inactive)

Prompt line: Looking for the measured growth of COc1cc2nc(SCc3cc(OC)c(OC)c(OC)c3)n(-c3ccccc3OC)c(=O)c2cc1OC , can you help?
Response line: 72.5% (inactive)

Prompt line: Looking for the measured growth of COc1ccc(Nc2[nH]n(C3=Nc4ccccc4Sc4ccccc43)c(=O)c2C#N)cc1 , can you help?
Response line: 32.8% (inactive)

Prompt line: Looking for the measured growth of Cc1c(NCC(=O)Nc2nc3ccccc3[nH]2)c(=O)n(-c2ccccc2)n1C , can you help?
Response line: 102% (inactive)

---

Test system: M14 melanoma
Assay: NCI-60 one-dose screen, 48 h (100 = growth as untreated, 0 = no growth, -100 = all killed)
Settings: 10 µM unless noted
The panel holds about 83,000 compounds, 20% with a hit somewhere; the sample as a whole holds those more often.
Below is a list of entries, each paired with its recorded growth value.
# number only, unit % dropped from output

// below: answered molecules
O=S(=O)(Nc1ccc(Cl)c(Cl)c1)c1ccc(-c2cnc(C3CC3)o2)cc1	14.1
COc1cc(/C=C/C(=O)C2=C(/C=C/c3ccc(O)c(OC)c3)NC(=O)NC2c2ccc(O)c(OC)c2)ccc1O (stereo unspecified)	94
COc1cc2cc(Oc3ccc(NC(=O)Nc4ccc(Cl)c(C(F)(F)F)c4)cc3)c(C)nc2cc1OCCN1CCCCC1	-67.4
Cc1ccc2c(c1)c(Sc1ccc(C(=O)NO)cc1)c1n2CN(C)CC1	26
O=C1C(Cl)=C(NCCCN2CCOCC2)C(=O)c2ccccc21	101
CC(=O)Nc1ccccc1-c1n[nH]c(=O)[nH]c1=O	92
COc1ccccc1/C=C/C(=O)/C=C/c1ccccc1O	-31
CCCCc1ccc(NC(=O)C(F)(F)F)cc1	105
CCCCCCCC/C=C\CCCCCCCCOc1cccc(CC(=O)NCC[N+]2(C)CCOCC2)c1	87
O=c1c2cc(F)ccc2oc2c(NCCNCCO)nc3ccccc3c12	60.1

Prompt line: Give growth (M14 melanoma) of the following molecule: COc1cccc(OC)c1OC(=O)c1ccccc1
Response line: 109

Prompt line: Give growth (M14 melanoma) of the following molecule: FC(F)(F)c1ccc2c(c1)n1cnnc1c1nncn21
Response line: 114

Prompt line: Give growth (M14 melanoma) of the following molecule: COc1ccc(/C=N/NC(=O)c2cnn3c2NC(c2ccccc2)C3)cc1OC1CCCC1 (stereo unspecified)
Response line: 93.5

Prompt line: Give growth (M14 melanoma) of the following molecule: Cc1nc2cc(Nc3nc(Nc4ccc(F)cc4)nc(-c4cccs4)n3)ccc2n1Cc1ccccc1
Response line: 53.1

Prompt line: Give growth (M14 melanoma) of the following molecule: O=C1CC(c2ccsc2)c2snc(-c3ccc(Cl)cc3)c2N1 (stereo unspecified)
Response line: 13.9

Prompt line: Give growth (M14 melanoma) of the following molecule: CCN1C(=O)C2(Nc3ccccc3S2)c2cc(C)ccc21 (stereo unspecified)
Response line: 92.6

---

System: SF-295 CNS
Assay: NCI-60 one-dose screen, 48 h
Details: 10 µM unless noted
About 83,000 compounds went through this panel and 20% of them were active in at least one assay; those are over-represented in the sample as a whole. The source made the active and inactive calls. Rule for the calls: active = growth percent below 10; inactive = the rest.
Choose the fitting class; nothing outside active, inactive is accepted.

Illustrative cases are given below, each with its answer.
COc1ccc(Cn2c(Br)c3c(c2-c2cc(OC)c(OC)c(OC)c2)CCc2sc(N)nc2-3)cc1	inactive
COc1ccc(NS(=O)(=O)c2ccc(-c3cnc(C4CC4)o3)cc2)cc1	inactive
Clc1ccc(C2=NN(c3ccccc3)[C@H](c3cn(-c4ccccc4)nc3-c3ccccc3)C2)cc1	inactive
O=[N+]([O-])c1ccc2nc(N/N=C/c3ccc(O)cc3)sc2c1	inactive
Cc1c(C(=O)Nc2nc(-c3ccccc3)cs2)nnn1-c1ccccc1Br	inactive
C=C[C@H]1C[C@@H]2C[C@@H]3[C@H]4C/C=C\C(=O)NCCCC5NC(=O)C(=C(O)/C=C/[C@@H]4CC(=O)[C@H]3[C@@H]2[C@H]1C)C5=O (stereo partly specified)	active

Prompt line: Short answer needed: outcome of this test for Cl.Fc1c[c-]c(-c2ccccn2)c(F)c1.[Pt].c1ccc([PH+](CC[PH+](c2ccccc2)c2ccccc2)c2ccccc2)cc1 ?
Response line: active

Prompt line: Short answer needed: outcome of this test for CCOC(=O)c1[nH]c2cc(Cl)ccc2c1[C@@H](C(=O)NC(C)(C)C)N(CC)C(=O)CCCCC#Cc1cccc2c1CN(C1CCC(=O)NC1=O)C2=O (stereo partly specified) ?
Response line: active

Prompt line: Short answer needed: outcome of this test for O=c1c2cc(F)ccc2oc2c(NCCNCCO)nc3ccccc3c12 ?
Response line: inactive

Prompt line: Short answer needed: outcome of this test for Cc1nc(-c2ccccc2)cc2c(O)c(C(=O)N/N=C/Cc3ccccc3)[nH]c(=O)c12 ?
Response line: inactive

Prompt line: Short answer needed: outcome of this test for COC(=O)c1c2c(c(C)[n+]([O-])c1C)C(=O)C=C(NCc1ccc(F)c(Cl)c1)C2=O ?
Response line: active

Prompt line: Short answer needed: outcome of this test for O=C1/C(=C/c2ccc(Oc3ccccc3)cc2)N=C(c2ccccc2)N1CCc1cccs1 ?
Response line: inactive

Prompt line: Short answer needed: outcome of this test for O=C1/C(=C/c2ccccc2F)CNC/C1=C\c1ccccc1F ?
Response line: active

Prompt line: Short answer needed: outcome of this test for COc1ccccc1CNCCCCCCCCCCCCN1C(=O)c2ccc3c4c(ccc(c24)C1=O)C(=O)N(CCCCCCCCCCCCNCc1ccccc1OC)C3=O ?
Response line: inactive

Prompt line: Short answer needed: outcome of this test for COc1ccc(-c2nn(-c3ccc(NC(=O)c4ccc(Cl)c(Cl)c4)cc3)cc2-c2ccncc2)cc1Cl ?
Response line: active

Prompt line: Short answer needed: outcome of this test for CN1CCc2c(c3ccccc3c3ccccc23)C1 ?
Response line: inactive

---

Test system: PC-3 prostate
Experiment: NCI-60 one-dose screen, 48 h (100 = growth as untreated, 0 = no growth, -100 = all killed)
Settings: 10 µM unless noted
This is part of a sample that, as a whole, favours compounds with a hit. Of some 83,000 tested, about 20% had one in any assay.
Category scheme (growth): 1 (below 60%), 2 (60% to below 80%), 3 (80% or more)

Prompt line: Which growth band matches CN1CCc2c(c3ccccc3c3ccccc23)C1 ?
Response line: 2

Prompt line: Which growth band matches O=C1/C(=C/c2ccc([N+](=O)[O-])cc2)Oc2ccc(O)cc21 ?
Response line: 3

Prompt line: Which growth band matches COc1cc(CNCCN2C(=O)c3ccc4c5c(ccc(c35)C2=O)C(=O)N(CCNCc2cc(OC)c(OC)c(OC)c2)C4=O)cc(OC)c1OC ?
Response line: 1

Prompt line: Which growth band matches Cc1nn(-c2ccccc2)c2nc3nc4c(c(N)c3c(-c3ccc(Cl)cc3)c12)CCCC4 ?
Response line: 3

Prompt line: Which growth band matches CC(=O)c1cc(C)c(OC(=O)c2ccccc2)c(C)c1 ?
Response line: 3

---

Test system: NCI-H226 lung
Assay: NCI-60 one-dose screen, 48 h (100 = growth as untreated, 0 = no growth, -100 = all killed)
Conditions: 10 µM
The panel holds about 83,000 compounds, 20% with a hit somewhere; the sample as a whole holds those more often.
Experimental Endpoint: growth (%)
# number only, unit % dropped from output

// below: answered compounds
Brc1ccc(SCN(CSc2ccc(Br)cc2)Cc2ccccc2)cc1	76.6
CC(C)(C)CC(C)(C)N(CSc1ccc(Cl)cc1)CSc1ccc(Cl)cc1	45.2
OC[C@@H](O)[C@@H](O)CO	98.6
C=C(C)COC(=O)c1ccccc1C(=O)OCC1(C)CO1 (stereo unspecified)	102
COc1cc(C(F)(F)F)ccc1-c1cc(-c2ccc(F)cc2)n[nH]1	81.1

Prompt line: Looking for the measured growth of COc1nc2c(cc1S(=O)(=O)c1ccccc1)CCc1c-2cnn1-c1ccccc1 , can you help?
Response line: 87.2

Prompt line: Looking for the measured growth of CN1CCn2c(c(Sc3ccc(C(=O)NO)cc3)c3ccccc32)C1=O , can you help?
Response line: -8.32

Prompt line: Looking for the measured growth of Cc1nn(CC(=O)O)c2c1C(=O)CC(C)(C)C2 , can you help?
Response line: 93.6

Prompt line: Looking for the measured growth of COc1ccc(-c2nn(-c3ccc(NC(=O)c4ccc(Cl)c(Cl)c4)cc3)cc2-c2ccncc2)cc1Cl , can you help?
Response line: 75.8

Prompt line: Looking for the measured growth of COC(=O)CCC(=O)c1ccccc1 , can you help?
Response line: 115

Prompt line: Looking for the measured growth of Clc1ccc(Nc2ccnc(N3CCN(c4ccnc5cc(Cl)ccc45)CC3)n2)cc1 , can you help?
Response line: 62.5

src = PubChem BioAssay (NCI)
